Provide the reported solubility kinetic of each item.
Assay: Assessment of solubility (HT solubility, pION, UV)
Type: physicochemical
Conditions: pH 4.5 buffer (pION system solution), pH 4.5, aqueous buffer, kinetic from dmso stock, pH 4.5 buffer, incubated 16-19 hours, 1.0% DMSO, 100 uM; read-out: Sol pH 4.5
Experimental: Solubility is measured by the following method. DMSO stock samples at 10 mM conc are prepared. […] The samples are pierced and 100 ul of thawed samples are transferred into the PCR plate for analysis. […] 75 ul of buffer (pH 7.4 or pH 4.5) is added to UV plate followed by addition of […] of N-propanol. The solution is mixed and the blank spectrum is read using spectrophotometer. […] The spectra collected for blank, reference and sample from 250-498 nm is analyzed using pION software. […]

Tell me measured solubility kinetic for Cc1ccc(OCc2ccc3c(c2)CCN(C)C3)c(-c2cccc(-c3ncc(C(=O)O)n3C)n2)c1 [Compound 41] please. > 58 µg/mL

Quick one: give measured solubility kinetic for Cc1cccc(-c2cccc(-c3onc(C(=O)O)c3C)n2)c1OCc1ccc2c(c1)CCN(C1CCOCC1)C2 [Compound 86] > 65 µg/mL

Identify solubility kinetic associated with the compound Cc1ccc(OCc2ccc3c(c2)CCN(Cc2cncn2C)C3)c(-c2cccc(-n3ncc(C(=O)O)c3C(F)(F)F)n2)c1 [Compound 30] > 60 µg/mL

Fill in reported solubility kinetic for this entry: Cc1ccc(OCc2ccc3c(c2)CCN(C(C)C)C3)c(-c2cccc(-n3ncc(C(=O)O)c3C(F)(F)F)n2)c1 [Compound 21] > 55 µg/mL

---

Assay: Assessment of solubility (HT solubility, pION, UV)
Type: physicochemical
Details: pH 7.4 buffer, incubated 16-19 hours, 1.0% DMSO, 100 uM
Metric Name: Sol pH 7.4

Tell me Sol pH 7.4 reported for Cc1ccc(OCc2ccc3c(c2)CCN(S(C)(=O)=O)C3)c(-c2cccc(-n3ncc(C(=O)O)c3C(F)(F)F)n2)c1 [Compound 5] >58 μg/mL

Tell me Sol pH 7.4 reported for Cc1ccc(OCc2ccc3c(c2)CCN(CC2CCCOC2)C3)c(-c2cccc(-n3ncc(C(=O)O)c3C(F)(F)F)n2)c1 (stereo not shown) [Compound 26] >60 μg/mL

Item Cc1ccc(OCc2ccc3c(c2)CCN(Cc2cnccn2)C3)c(-c2cccc(-n3ncc(C(=O)O)c3C(F)(F)F)n2)c1 [Compound 24] : provide Sol pH 7.4 >59 μg/mL

Report Sol pH 7.4 for Cc1ccc(OCc2ccc3c(c2)CCN(C2CCOCC2)C3)c(-c2cccc(-c3c(C)c(C(=O)O)nn3C)n2)c1 [Compound 79] >80 μg/mL

---

Experiment: Assessment of solubility (HT solubility, pION, UV)
Type: physicochemical
Conditions: pH 7.4 buffer, incubated 16-19 hours, 1.0% DMSO, 100 uM
Metric Name: Sol pH 7.4

Quote Sol pH 7.4 reported for Cc1ccc(OCc2ccc3c(c2)CCN(C2CCOCC2)C3)c(-c2cccc(-n3cnc(C(=O)O)c3C)n2)c1 [Compound 58] please. >78 μg/mL

Please look at this compound and report its Sol pH 7.4: Cc1cccc(-c2cccc(-c3c(C)c(C(=O)O)nn3C3CCOCC3)n2)c1OCc1ccc2c(c1)CCN(C1CCOCC1)C2 [Compound 89] >62 μg/mL

Look up and report measured Sol pH 7.4 for this entry: Cc1cccc(-c2cccc(-c3ncc(C(=O)O)n3C)n2)c1OCc1ccc2c(c1)CCN(C1CCCCCC1)C2 [Compound 76] >66 μg/mL

Complete the entry with Sol pH 7.4 for Cc1ccc(OCc2ccc3c(c2)CCN(Cc2cncn2C)C3)c(-c2cccc(-n3ncc(C(=O)O)c3C(F)(F)F)n2)c1 [Compound 30] >60 μg/mL

Provide Sol pH 7.4 value for the following compound: Cc1ccc(OCc2ccc3c(c2)CCN(CC2CCOC2)C3)c(-c2cccc(-n3ncc(C(=O)O)c3C(F)(F)F)n2)c1 (stereo not drawn) [Compound 23] >59 μg/mL

State, in one line, measured Sol pH 7.4 of Cc1ccc(OCc2ccc3c(c2)CCN(C(C)c2cnccn2)C3)c(-c2cccc(-n3ncc(C(=O)O)c3C(F)(F)F)n2)c1 (stereo not drawn) [Compound 28] >61 μg/mL

Recall and state the measured Sol pH 7.4 for Cc1ccc(OCc2ccc3c(c2)CCN(C2CCCOC2)C3)c(-c2cccc(-n3ncc(C(=O)O)c3C(F)(F)F)n2)c1 (stereo not drawn) [Compound 22] . >59 μg/mL

Please give the documented Sol pH 7.4 of Cn1c(C(=O)O)cnc1-c1cccc(-c2cccc(C(F)(F)F)c2OCc2ccc3c(c2)CCN(C2CCOCC2)C3)n1 [Compound 61] >110 μg/mL

Given Cc1cccc(-c2cccc(-c3csc(C(=O)O)c3C)n2)c1OCc1ccc2c(c1)CCN(C1CCOCC1)C2 [Compound 60] , respond with its Sol pH 7.4. >64 μg/mL

Output Sol pH 7.4 of Cc1ccc(OCc2ccc3c(c2)CCN(C(C)C)C3)c(-c2cccc(-n3ncc(C(=O)O)c3C(F)(F)F)n2)c1 [Compound 21] >55 μg/mL

Tell us which Sol pH 7.4 value is on record for Cc1ccc(OCc2ccc3c(c2)CCN(C2CCCC2)C3)c(-c2cccc(-n3ncc(C(=O)O)c3C(F)(F)F)n2)c1 [Compound 17] >68 μg/mL

Please give the documented Sol pH 7.4 of Cc1ccc(OCc2ccc3c(c2C)CCN(C2CCOCC2)C3)c(-c2cccc(-c3c(C)c(C(=O)O)nn3C)n2)c1 [Compound 80] >81 μg/mL

Indicate the recorded Sol pH 7.4 value for this compound: Cc1cccc(-c2cccc(-n3ncc(C(=O)O)c3C)n2)c1OCc1ccc2c(c1)CCN(C1CCOCC1)C2 [Compound 64] >78 μg/mL

Consider the compound Cc1cccc(-c2cccc(-n3cnc(C(=O)O)c3C)n2)c1OCc1ccc2c(c1C)CCN(C1CCOC1)C2 (stereo not drawn) [Compound 55] . State its measured Sol pH 7.4. >63 μg/mL

Report Sol pH 7.4, nothing else, for this compound: Cc1cccc(-c2cccc(-n3cnc(C(=O)O)c3C)n2)c1OCc1ccc2c(c1C)CCN(Cc1ccccn1)C2 [Compound 56] >65 μg/mL

---

Assay: Assessment of solubility (HT solubility, pION, UV)
Type: physicochemical
Settings: pH 4.5 buffer (pION system solution), pH 4.5, aqueous buffer, kinetic from dmso stock, pH 4.5 buffer, incubated 16-19 hours, 1.0% DMSO, 100 uM; read-out: Sol pH 4.5
For each of the compounds below, state its solubility kinetic.

Let me know recorded solubility kinetic for Cc1cccc(-c2cccc(-c3csc(C(=O)O)c3C)n2)c1OCc1ccc2c(c1)CCN(C1CCOCC1)C2 , thanks. > 64 µg/mL

Please indicate solubility kinetic recorded for Cc1ccc(OCc2ccc3c(c2)CCN(C(C)c2cnccn2)C3)c(-c2cccc(-n3ncc(C(=O)O)c3C(F)(F)F)n2)c1 (stereo not drawn) > 61 µg/mL

Tell us which solubility kinetic value is on record for Cc1cccc(-c2cccc(-c3c(C)c(C(=O)O)nn3CCC(=O)O)n2)c1OCc1ccc2c(c1)CCN(C1CCOCC1)C2 > 60 µg/mL

# return recorded solubility kinetic for entry Cc1ccc(OCc2ccc3c(c2)CCN(C2CCOCC2)C3)c(-c2cccc(-n3ncc(C(=O)O)c3C)n2)c1 > 53 µg/mL

For the compound Cc1cccc(-c2cccc(-c3ncc(C(=O)O)n3C)n2)c1OCc1ccc2c(c1)CCN(C1CCCOC1)C2 (stereo not drawn) , give its reported solubility kinetic. > 65 µg/mL

Give reported solubility kinetic value for Cc1cccc(-c2cccc(-c3c(C)c(C(=O)O)nn3C(C)C)n2)c1OCc1ccc2c(c1)CCN(C1CCOCC1)C2 > 69 µg/mL

---

Assay: Assessment of solubility (HT solubility, pION, UV)
Type: physicochemical
Details: pH 4.5 buffer (pION system solution), pH 4.5, aqueous buffer, kinetic from dmso stock, pH 4.5 buffer, incubated 16-19 hours, 1.0% DMSO, 100 uM; read-out: Sol pH 4.5
Hi there, I'd appreciate the recorded solubility kinetic for every entry that follows.

Hello, please tell me recorded solubility kinetic for this one: Cc1cccc(-c2cccc(-c3nc(C)c(C(=O)O)s3)n2)c1OCc1ccc2c(c1)CCN(C1CCOCC1)C2 [Compound 59] > 110 µg/mL

Report solubility kinetic, nothing else, for this compound: Cc1cc(CN2CCc3cc(COc4c(C)cccc4-c4cccc(-c5ncc(C(=O)O)n5C)n4)ccc3C2)no1 [Compound 72] > 67 µg/mL

Retrieve solubility kinetic measured for Cc1cccc(-c2cccc(-n3cnc(C(=O)O)c3C)n2)c1OCc1ccc2c(c1C)CCN(C1CCOC1)C2 (centres unmarked) [Compound 55] and print it. > 63 µg/mL

Entry Cc1cccc(-c2cccc(-c3c(C)c(C(=O)O)nn3C3CC3)n2)c1OCc1ccc2c(c1)CCN(C1CCOCC1)C2 [Compound 91] needs its solubility kinetic filled in; supply it. > 69 µg/mL

Assign solubility kinetic to the following record: Cc1ccc(OCc2ccc3c(c2)CN(C)CC3)c(-c2cccc(-n3ncc(C(=O)O)c3C(F)(F)F)n2)c1 [Compound 52] > 63 µg/mL

Complete the entry with solubility kinetic for CCn1c(C(=O)O)cnc1-c1cccc(-c2cccc(C)c2OCc2ccc3c(c2)CCN(C2CCOCC2)C3)n1 [Compound 63] > 78 µg/mL

Could you please provide reported solubility kinetic for Cc1ccc(OCc2ccc3c(c2)CCN(C2CCOCC2)C3)c(-c2cccc(-c3c(C)c(C(=O)O)nn3C)n2)c1 [Compound 79] ? Thanks! > 80 µg/mL

Please list solubility kinetic recorded for the compound Cc1cccc(-c2cccc(-c3ncc(C(=O)O)n3C)n2)c1OCc1ccc2c(c1)CCN(C1CCC(F)(F)CC1)C2 [Compound 74] > 66 µg/mL
